test system: NOMO1; assay: cell viability relative to DMSO control; higher = less cytotoxic; conditions: RPMI 5 mM glucose + 10% FBS; 48 h; 0.000781 µM

{"columns": ["Compound", "cell viability (%)"],
 "data": [
  ["O=C(Nc1c(Cl)cncc1Cl)c1ccc(OC(F)F)c(OCC2CC2)c1", 94.4],
  ["C[C@]1(c2nc3c(C(N)=O)cccc3[nH]2)CCCN1", 65.2],
  ["O=C(c1ccc(Nc2nccc(-c3cc4ccccc4s3)n2)cc1)N1CCC(N2CCCC2)CC1", 113],
  ["C\\C1=C(\\C=C(\\C#N)C(=O)N1)C2=CC=NC=C2", 94.7],
  ["CC[C@H](C)[N]1C=C(C)C2=C1C=C(C=C2C(=O)NC\\C3=C(C)\\C=C(\\C)NC3=O)C4=CC=C(N=C4)N5CCNCC5", 105],
  ["COc1cc2ncnc(Nc3ccc(F)c(Cl)c3)c2cc1NC(=O)/C=C/CN1CCCCC1", 86.4],
  ["CCOC(=O)C/1=C(O)/C(=O)N(CC2=CC=CC=C2)C1", 102],
  ["O=C(Nc1cc2cc[nH]c2cn1)c1ccccc1", 95.6],
  ["CCC(C)(C)c1ccc(CC(C)CN2C[C@@H](C)O[C@@H](C)C2)cc1 (some centres not stated)", 71.5],
  ["COc1cc2ncnc(Nc3cc(Br)c(O)c(Br)c3)c2cc1OC", 99.5],
  ["C[S+](=O)([O-])N1CCc2c(-c3cnc(N)nc3)nc(N3CCOCC3)nc21", 107],
  ["OC1=CC2=C(C(=C1)O)C(=O)\\C=C(/O2)C3=CC=CC=C3", 101],
  ["Cc1ccc([S+](=O)([O-])N[C@@H](Cc2ccccc2)C(=O)CCl)cc1", 91.8],
  ["CN1CCCN=C1/C=C/c1cccs1.O=C(O)c1cc2ccccc2c(Cc2c(O)c(C(=O)O)cc3ccccc23)c1O", 115],
  ["C=C[C@H]1CN2CC[C@H]1C[C@H]2[C@H](O)c1ccnc2ccc(OC)cc12", 86.5],
  ["COc1ccc(-c2nc(N3CCOCC3)c3sc(CN(C)c4ncc(C(=O)NO)cn4)cc3n2)cn1", 110],
  ["COc1ccc(C2CNC(=O)C2)cc1OC1CCCC1 (configuration not stated)", 85.8],
  ["C[C@]12CC[C@@H]3c4ccc(O)cc4C[C@@H](CCCCCCCCC[S+]([O-])CCCC(F)(F)C(F)(F)F)[C@H]3[C@@H]1CC[C@@H]2O (some centres not stated)", 103],
  ["O=C(NC[C@H](O)CO)c1ccncc1Nc1ccc(I)cc1F", 103],
  ["Cc1cc2c(F)c(Oc3ncnn4cc(OC[C@@H](C)O)c(C)c34)ccc2[nH]1", 86.5],
  ["N[C@H](CSC(c1ccccc1)(c1ccccc1)c1ccccc1)C(=O)O", 121],
  ["Cc1cc(C(C)(C)C)c(O)c(C)c1CC1=NCCN1", 91.6],
  ["CC(C)C(=O)Oc1ccc(CO)cc1[C@H](CCN(C(C)C)C(C)C)c1ccccc1", 85.2],
  ["FC(F)c1nc2ccccc2n1-c1nc(N2CCOCC2)nc(N2CCOCC2)n1", 85.4],
  ["CCOC(=O)\\C1=C(/C)N\\C2=C(C1C3=CC=C(C=C3)C4=CC=CC=C4)\\C(=O)CC(C)(C)C2 (configuration not stated)", 107],
  ["CC(C)C[C@H](NC(=O)[C@H](CCc1ccccc1)NC(=O)CN1CCOCC1)C(=O)N[C@@H](Cc1ccccc1)C(=O)N[C@@H](CC(C)C)C(=O)[C@@]1(C)CO1", 77.8],
  ["CNC1CCC(N(Cc2cccc(-c3ccncc3)c2)C(=O)c2sc3c(F)ccc(F)c3c2Cl)CC1 (configuration not stated)", 95.3]
]}

These measurements were taken from the supplement of paper PMC11451515.
